- Assayed Target: RAC-beta serine/threonine-protein kinase (Homo sapiens)
- Sequence (P31751 whole entry): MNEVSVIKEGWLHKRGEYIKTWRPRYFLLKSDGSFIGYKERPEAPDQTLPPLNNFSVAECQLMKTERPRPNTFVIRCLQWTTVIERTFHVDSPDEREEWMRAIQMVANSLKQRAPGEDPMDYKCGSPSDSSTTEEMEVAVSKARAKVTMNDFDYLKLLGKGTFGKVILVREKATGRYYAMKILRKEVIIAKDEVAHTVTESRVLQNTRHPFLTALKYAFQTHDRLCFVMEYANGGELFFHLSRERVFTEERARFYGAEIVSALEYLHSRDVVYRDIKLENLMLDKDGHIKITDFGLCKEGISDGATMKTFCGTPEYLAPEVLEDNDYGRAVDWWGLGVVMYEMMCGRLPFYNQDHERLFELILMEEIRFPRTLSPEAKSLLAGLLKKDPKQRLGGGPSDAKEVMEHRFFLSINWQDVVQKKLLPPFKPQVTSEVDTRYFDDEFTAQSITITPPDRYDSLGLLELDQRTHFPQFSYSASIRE
- Protocol Text: PKB In Vitro Enzyme Assay
pIC50: −log10 of the molar value.
Quantity: pIC50

Given Smiles: O=S(=O)(N[C@@H]1CN[C@H](COCc2ccc(Cl)cc2)C1)c1cccc2cnccc12
Assayed Target: RAC-beta serine/threonine-protein kinase (Homo sapiens)
Quantity: pIC50
Reported Measurement: 6.11
--
Given Smiles: O=S(=O)(NC[C@@H]1C[C@H](OCc2ccccc2)CN1)c1cccc2cnccc12
Assayed Target: RAC-beta serine/threonine-protein kinase (Homo sapiens)
Quantity: pIC50
Reported Measurement: 5.47

1. O=S(=O)(N[C@H]1CC[C@H](NCc2ccccc2)CC1)c1cccc2cnccc12
2. O=S(=O)(NC[C@@H]1C[C@H](OCc2ccc(Cl)cc2)CN1)c1cccc2cnccc12
Name the one with the greater pIC50 value, either 1 or 2 as given. Selection: enter the item's label. 2
